Values compiled from patent US11667645B2.

Listed next: entries and their corresponding pIC50.
experimental_system: Granzyme B (human lymphocytes) (Homo sapiens (Human))
Sequence (P10144 21-247): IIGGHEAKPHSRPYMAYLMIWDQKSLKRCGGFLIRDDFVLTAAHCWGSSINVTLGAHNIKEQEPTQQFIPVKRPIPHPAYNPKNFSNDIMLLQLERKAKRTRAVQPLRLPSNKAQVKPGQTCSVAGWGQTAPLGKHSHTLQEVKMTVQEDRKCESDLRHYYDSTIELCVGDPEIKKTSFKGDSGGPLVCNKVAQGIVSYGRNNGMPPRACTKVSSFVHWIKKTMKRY
assay_explanation: human Granzyme B biochemical assay
measurement_parameters: Granzyme B (human lymphocytes) 5 nM, substrate Ac-IETD-AFC 200 μM, Cpd incubation with enzyme 30 mins, 22° C., read time 60 mins; read-out: IC50
pIC50: −log10 of the molar value.

>>> test_result("CC[C@H](C)[C@H](NC(=O)c1ccc(F)nc1)C(=O)N[C@H]1CCc2cccc3c2N(C1=O)[C@H](C(=O)NCc1c[nH]nn1)C3")
"6.52 to 9.00"
>>> test_result("CC(C)[C@H](NC(=O)COCCF)C(=O)N[C@H]1CCc2cccc3c2N(C1=O)[C@H](C(=O)NCc1c[nH]nn1)C3")
"6.52 to 9.00"
>>> test_result("O=C(Cc1ccccc1)N[C@@H](Cc1ccc(F)cc1)C(=O)N[C@H]1CCc2cccc3c2N(C1=O)[C@H](C(=O)NCc1c[nH]nn1)C3")
"< 5.30"
>>> test_result("CC(C)[C@H](NC(=O)COCCF)C(=O)N[C@H]1COc2cccc3c2N(C1=O)[C@H](C(=O)NCc1c[nH]nn1)C3")
"6.52 to 9.00"
>>> test_result("N[C@H]1CCc2cccc3c2N(C1=O)[C@H](C(=O)NCc1c[nH]nn1)C3")
"< 5.30"

Task: I'd like to know its pIC50. The compound in question is `CC(=O)NCC(=O)N[C@H]1CCc2cccc3c2N(C1=O)[C@H](C(=O)NCc1c[nH]nn1)C3`
Output: < 5.30

Task: What pIC50 value was documented for this compound, `CC[C@@H](C)[C@H](NC(=O)c1ccccc1)C(=O)N[C@H]1CCc2cccc3c2N(C1=O)[C@H](C(=O)NCc1c[nH]nn1)C3` ?
Output: 6.52 to 9.00

Task: Requested field: pIC50. Item: `CC[C@H](NC(=O)c1ccccc1)C(=O)N[C@H]1CCc2cccc3c2N(C1=O)[C@H](C(=O)NCc1c[nH]nn1)C3`
Output: 5.30 to 6.00

Task: Fill in: pIC50 of `CC[C@H](C)[C@H](NC(=O)COCCF)C(=O)N[C@H]1CCc2cccc3c2N(C1=O)[C@H](C(=O)NCc1ccsc1)C3` is ___
Output: < 5.30

Task: Param item = `CC(=O)N[C@@H](CCC(=O)O)C(=O)N[C@H]1CCc2cccc3c2N(C1=O)[C@H](C(=O)NCc1c[nH]nn1)C3` ; retrieve measured pIC50.
Output: < 5.30

Task: Which measured pIC50 value corresponds to `O=C(Cc1ccccc1)N[C@H](C(=O)N[C@H]1CCc2cccc3c2N(C1=O)[C@H](C(=O)NCc1c[nH]nn1)C3)c1ccccc1` ?
Output: < 5.30

Task: I would be grateful if you could share the reported pIC50 for `CC[C@H](C)[C@H](NC(C)=O)C(=O)N[C@H]1COc2cccc3c2N(C1=O)[C@H](C(=O)NCc1c[nH]nn1)C3` .
Output: 6.52 to 9.00

Task: Which pIC50 value belongs to `CC[C@H](C)[C@H](NC(=O)Cc1cc2ccccc2[nH]1)C(=O)N[C@H]1CCc2cccc3c2N(C1=O)[C@H](C(=O)NCc1c[nH]nn1)C3` ?
Output: 6.52 to 9.00
